List of pEC50 values.
system.under.test: Free fatty acid receptor 1 (Homo sapiens)
Sequence (O14842 whole entry, the tested form may be a part): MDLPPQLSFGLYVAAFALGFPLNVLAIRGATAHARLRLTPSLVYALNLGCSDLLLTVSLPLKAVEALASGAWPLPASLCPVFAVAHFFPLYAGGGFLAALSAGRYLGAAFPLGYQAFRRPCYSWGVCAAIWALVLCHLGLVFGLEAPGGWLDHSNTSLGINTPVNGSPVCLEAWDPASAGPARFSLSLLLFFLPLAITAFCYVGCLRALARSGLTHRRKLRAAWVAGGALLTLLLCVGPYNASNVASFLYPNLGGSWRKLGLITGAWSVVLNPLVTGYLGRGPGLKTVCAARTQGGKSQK
test.name: Agonist activity at human recombinant full-length Prolink-tagged GPR40 fused with EA-tagged beta-arrestin expressed in human HEK293 cells assessed as induction of beta-arrestin recruitment measured after 90 mins by beta-galactosidase based PathHunter assay
Type: cell-based
In simple prose, pEC50 is minus the logarithm base ten of a concentration in moles per litre.

# input Give pEC50 for `CC#C[C@@H](CC(=O)O)c1ccc(OCc2ccc(CN3CCCc4cccc(OC)c43)s2)cc1`
# output 8.15

# input Determine from records and report pEC50 for `CC#C[C@@H](CC(=O)O)c1ccc(OCc2ccc(CN3CCC4(C=Cc5ccccc54)CC3)c(F)c2)cc1`
# output 8.03

# input Name the recorded pEC50 of the compound listed here: `CC#C[C@@H](CC(=O)O)c1ccc(OCc2ccc(CN3CCC4(CC3)CN(C(C)C)c3ccccc34)cc2)cc1`
# output 8.09

# input Using known records, supply pEC50 for `CC#C[C@@H](CC(=O)O)c1ccc(OCc2ccc(CN3CCC4(CCc5ccccc54)CC3)cc2)cc1`
# output 7.96
